System: Escherichia coli strain MC4100 IMP-4213, which harbors an LptD mutation
Setup Conditions: E. coli MC4100 IMP-4213; 35° C., 22 hours
Where a SMILES comes first, the peptide text is derived from it. [ ]: non-standard residue; d: D form. The star is where a group is joined. boroAla((+)-pinanediol) = C[C@H](N*)B1O[C@@H]2C[C@@H]3C[C@@H](C3(C)C)[C@]2(C)O1; Biphenylcarbonyl(4'-Bu) = CCCCc1ccc(-c2ccc(C(=O)*)cc2)cc1; X5 = C[C@H](N*)B1OC2C[C@@H]3C[C@@H](C3(C)C)[C@]2(C)O1; Benzoyl(4-(4-Cl-Ph)) = O=C(c1ccc(-c2ccc(Cl)cc2)cc1)*; X18 = CCCCc1ccc(-c2ccc(S(=O)(=O)*)cn2)cc1; X21 = O=S(=O)(c1ccc(-c2ccc(Cl)cc2)nc1)*; X30 = CCCCc1ccc(-c2ncc(C(=O)*)cn2)cc1; X31 = O=S(=O)(c1ccc(-c2ccccc2)cn1)*; X20 = CC(N*)C(=O)C(F)(F)C(=O)O; aThr = C[C@H](O)[C@H](N)C(=O)O; boroAla = C[C@H](N*)B(O)O; Dab = NCC[C@H](N)C(=O)O
Listing of recorded MIC (μg/mL) E. coli by entry.

Molecule	Unit Abbrev	Limit Qualifier	MIC (μg/mL) E. coli
CCCCc1ccc(-c2ccc(C(=O)N[C@@H](CCN)C(=O)N[C@H](C(=O)N[C@@H](C)C(=O)N[C@@H](CCCCN)C(=O)N[C@@H](C)B3O[C@@H]4C[C@@H]5C[C@@H](C5(C)C)[C@]4(C)O3)[C@H](C)O)cc2)cc1 [Compound 125] ({Biphenylcarbonyl(4'-Bu)}-[Dab][aThr]AK-{boroAla((+)-pinanediol)})	µg/mL	=	0.4
CCCCc1ccc(-c2ccc(C(=O)N[C@@H](CCN)C(=O)N[C@@H](CCC(N)=O)C(=O)N[C@@H](C)C(=O)N[C@@H](CCCCN)C(=O)N[C@@H](C)B3OC4C[C@@H]5C[C@@H](C5(C)C)[C@]4(C)O3)cc2)cc1 (some centres unmarked) [Compound 122] ({Biphenylcarbonyl(4'-Bu)}-[Dab]QAK-X5)	µg/mL	=	0.2
CCCCc1ccc(-c2ccc(S(=O)(=O)N[C@@H](CCN)C(=O)N[C@H](C(=O)N[C@@H](C)C(=O)N[C@@H](CCCCN)C(=O)N[C@@H](C)B(O)O)[C@@H](C)O)cn2)cc1 [Compound 233] (X18-[Dab]TAK-boroAla)	µg/mL	=	8
CCCCc1ccc(-c2ncc(C(=O)N[C@@H](CCN)C(=O)N[C@@H](CCCCN)C(=O)N[C@@H](C)C(=O)N[C@@H](CCCCN)C(=O)N[C@@H](C)B3O[C@@H]4C[C@@H]5C[C@@H](C5(C)C)[C@]4(C)O3)cn2)cc1 [Compound 271] (X30-[Dab]KAK-{boroAla((+)-pinanediol)})	µg/mL	=	0.13
CCCCc1ccc(-c2ccc(C(N[C@@H](CCCCN)C(=O)N[C@H](C(=O)N[C@@H](C)C(=O)N[C@@H](CC(C)C)C(=O)N[C@@H](C)B3O[C@@H]4C[C@@H]5C[C@@H](C5(C)C)[C@]4(C)O3)[C@@H](C)O)C(F)(F)F)cc2)cc1 (some centres unmarked)	µg/mL	=	4
C[C@H](NC(=O)[C@H](CCCCN)NC(=O)[C@H](C)NC(=O)[C@@H](NC(=O)[C@H](CCCCN)NS(=O)(=O)c1ccc(-c2ccccc2)cn1)[C@@H](C)O)B1O[C@@H]2C[C@@H]3C[C@@H](C3(C)C)[C@]2(C)O1 [Compound 231] (X31-KTAK-{boroAla((+)-pinanediol)})	µg/mL	>	64
CC(NC(=O)[C@H](CCCCN)NC(=O)[C@H](C)NC(=O)[C@@H](NC(=O)[C@H](CCN)NC(=O)c1ccc(-c2ccc(Cl)cc2)cc1)[C@@H](C)O)C(=O)C(F)(F)C(=O)O (some centres unmarked) [Compound 215] ({Benzoyl(4-(4-Cl-Ph))}-[Dab]TAK-X20)	µg/mL	=	64
C[C@H](NC(=O)[C@H](CCCCN)NC(=O)[C@H](C)NC(=O)[C@@H](NC(=O)[C@H](CCN)NS(=O)(=O)c1ccc(-c2ccc(Cl)cc2)nc1)[C@@H](C)O)B(O)O [Compound 235] (X21-[Dab]TAK-boroAla)	µg/mL	=	32
